Sourced from PubChem BioAssay AID192

# Test system: BDF1 mice, B16 melanoma ip, median survival T/C
# test_name: NCI In Vivo Anticancer Drug Screen. Data for tumor model B16 Melanoma (intraperitoneal) in B6D2F1 (BDF1) mice
# test_context: endpoint: median survival time; dose: 5.0 mg/kg/injection; schedule: Q01DX009 (ip); vehicle: saline with Tween-80
Toxic doses and inconclusive results are not listed. The calls were made as follows: active = survival T/C of 150% or more; inactive = T/C below 125% in these data.
Labels: active, inactive

INSERT INTO measurements (compound, classification) VALUES
  ('CC(C)C1=CC2=CCC3C(C)(CN)CCCC3(C)C2CC1CCN (configuration not stated)', 'inactive'),
  ('CC(CN=Cc1ccccc1[O-])N=Cc1ccccc1[O-].[O]=[V] (configuration not stated)', 'inactive'),
  ('COc1ccc2cc3[n+](cc2c1OC)CCc1cc2c(cc1-3)OCO2', 'inactive'),
  ('Cc1ccc([NH-])c([NH-])c1.[Cl][Pt+2][Cl]', 'active'),
  ('CN(C)CC(C(=O)c1ccc(Br)cc1)C(Br)c1ccccc1 (configuration not stated)', 'inactive'),
  ('O=C1C(=O)c2ccccc2C(O)=C1CCCc1ccc(OCc2ccccc2)cc1', 'inactive'),
  ('COC1N(C2CC(O)C(CO)O2)C(=O)NC(=O)C1(F)Br (configuration not stated)', 'inactive');

* * *

# Test system: BDF1 mice, B16 melanoma ip, median survival T/C
# test_name: NCI In Vivo Anticancer Drug Screen. Data for tumor model B16 Melanoma (intraperitoneal) in B6D2F1 (BDF1) mice
# test_context: endpoint: median survival time; dose: 50.0 mg/kg/injection; schedule: Q04DX003 (ip); vehicle: saline with Tween-80; higher = longer survival
Toxic doses and inconclusive results are not listed.
reported_endpoint: T/C

INSERT INTO results (molecule, reported_endpoint, reading) VALUES
  ('NC(=S)N/N=C/c1ccc2c(c1)OCO2', 'T/C', '106 % of control'),
  ('C=CC1CC[N-]CC1.C=CC1CC[N-]CC1.C=CC1CC[N-]CC1.[Cl][Cr]([Cl])[Cl]', 'T/C', '113 % of control'),
  ('CCCCN(CCCC)C(=O)c1[nH]cnc1/N=N\N(C)C', 'T/C', '117 % of control'),
  ('C/C=C(/C#N)c1ccccc1', 'T/C', '100 % of control'),
  ('OC(C#Cc1ccccc1)c1ccccc1 (centres undefined)', 'T/C', '108 % of control'),
  ('Cc1nc2[nH]c(=O)[nH]c(=O)c2[nH]1', 'T/C', '105 % of control'),
  ('O=C(O)CC(Br)C(=O)c1ccccc1 (centres undefined)', 'T/C', '88 % of control'),
  ('CC(C)(C)OC(=O)NC(CCCCNC(=O)C(F)(F)F)C(=O)ON1C(=O)CCC1=O (centres undefined)', 'T/C', '115 % of control'),
  ('O=C1CCCNc2ccccc21', 'T/C', '102 % of control');

* * *

# System: BDF1 mice, B16 melanoma ip, median survival T/C
# test_name: NCI In Vivo Anticancer Drug Screen. Data for tumor model B16 Melanoma (intraperitoneal) in B6D2F1 (BDF1) mice
# test_context: endpoint: median survival time; dose: 1.5 mg/kg/injection; schedule: Q01DX009 (ip); vehicle: Klucel (hydroxypropylcellulose) (HPC); higher = longer survival
# Description: The antitumor activity of compounds was measured in mice bearing transplantable tumors. Survival or tumor size were measured and the results are expressed as the measurement made in the treated group (T) divided by the measurement made in the vehicle treated control group (C). The tumor model used in this assay is B16 Melanoma (intraperitoneal) in B6D2F1 (BDF1) mice
Toxic doses and inconclusive results are not listed.
reported_endpoint: T/C

INSERT INTO assay_data (compound, reported_endpoint, reading) VALUES
  ('CCCC1CC[N-]CC1.CCCC1CC[N-]CC1.CCCC1CC[N-]CC1.CCCC1CC[N-]CC1.[Cl][Rh][Cl]', 'T/C', '100 % of control'),
  ('COC(=O)c1cc([N+](=O)[O-])cc([N+](=O)[O-])c1Br', 'T/C', '88 % of control'),
  ('CN(C)c1ccc(C(N)=O)cn1', 'T/C', '124 % of control'),
  ('Nc1nc(N)c2nc(CN(CCO)c3ccc(C(=O)NC(CCC(=O)O)C(=O)O)cc3)cnc2n1 (stereo unspecified)', 'T/C', '97 % of control'),
  ('C[CH2][Pb]([CH2]C)([CH2]C)[O]C(=O)c1ccc(N)cc1', 'T/C', '111 % of control'),
  ('Cc1cc(O)c2c(c1O)C(=O)c1cccc(O)c1C2=O', 'T/C', '87 % of control');

* * *

# Test system: BDF1 mice, B16 melanoma ip, median survival T/C
# test_name: NCI In Vivo Anticancer Drug Screen. Data for tumor model B16 Melanoma (intraperitoneal) in B6D2F1 (BDF1) mice
# test_context: endpoint: median survival time; dose: 8.0 mg/kg/injection; schedule: Q01DX009 (ip); vehicle: saline with Tween-80; higher = longer survival
Toxic doses and inconclusive results are not listed.
Measured T/C accompanies every entry in the list below.
reported_endpoint: T/C

INSERT INTO results (molecule, target_of_assay, reported_endpoint, reading) VALUES
  ('C=C1C(=O)OCC1(C(=O)OCC)C(=O)OCC', 'BDF1 mice, B16 melanoma ip, median survival T/C', 'T/C', '97 % of control'),
  ('O=C(Nc1ccccc1C(F)(F)F)c1ccc(C(=O)Nc2ccccc2C(F)(F)F)cc1', 'BDF1 mice, B16 melanoma ip, median survival T/C', 'T/C', '88 % of control'),
  ('O=C(Nc1ccc(C2=NCCN2)cc1)c1ccc(C(=O)Nc2ccc(C3=NCCN3)cc2)c(Cl)c1', 'BDF1 mice, B16 melanoma ip, median survival T/C', 'T/C', '104 % of control'),
  ('CC(O)C1(O)C(O)CC(OC2c3cc4c(c(O)c3[C@@H]3C[C@@]2(C)OC32C=c3cc[nH]c3=N2)C(=O)c2cccc(O)c2C4=O)OC1C (some centres undefined)', 'BDF1 mice, B16 melanoma ip, median survival T/C', 'T/C', '115 % of control');

* * *

Measured T/C accompanies every entry in the list below.
# Test system: BDF1 mice, B16 melanoma ip, median survival T/C
# test_name: NCI In Vivo Anticancer Drug Screen. Data for tumor model B16 Melanoma (intraperitoneal) in B6D2F1 (BDF1) mice
# test_context: endpoint: median survival time; dose: 12.5 mg/kg/injection; schedule: Q01DX009 (ip); vehicle: Klucel (hydroxypropylcellulose) (HPC); higher = longer survival
Inconclusive results and toxic doses are left out.
reported_endpoint: T/C

INSERT INTO measurements (compound, reading) VALUES
  ('COC(=O)C1C(O)C(C)C(O)C(C)C=C(C)C2=C3C(=C(C)C(=O)c4c(O)c(c(C)c(OC(C)=O)c43)NC(=O)C(C)=C/C=C\C(C)C(O)C(C)C1O)OCO2 (stereo unspecified)', '94 % of control'),
  ('CN(C)N=Nc1cn[nH]c1C(N)=O', '110 % of control'),
  ('C=C1C(=O)O[C@@H]2[C@H]3O[C@]3(C)CCC=C(C)CC[C@@H]12', '92 % of control'),
  ('Cc1cc(N)c2cc(NC(=O)CCCCCCCCC(=O)Nc3ccc4nc(C)cc(N)c4c3)ccc2n1', '100 % of control'),
  ('COC1(OC)C2(Cl)C(Cl)=C(Cl)C1(Cl)C1C(=O)C=CC(=O)C12 (stereo unspecified)', '90 % of control'),
  ('C[N+](C)(C)Cc1ccccc1', '107 % of control'),
  ('O=C1C(=O)c2ccccc2-c2ccccc21', '101 % of control'),
  ('Clc1cc(CBr)c(Cl)c(Cl)c1CBr', '92 % of control'),
  ('CN(C)c1ccc2c(N(C)C)cc(N(C)C)nc2c1', '97 % of control'),
  ('COc1ccc2c(Cc3ccccc3)cncc2c1O', '99 % of control'),
  ('O=C1Nc2ccccc2/C1=C\c1ccccc1O', '105 % of control');

* * *

Measured T/C accompanies every entry in the list below.
# Test system: BDF1 mice, B16 melanoma ip, median survival T/C
# test_name: NCI In Vivo Anticancer Drug Screen. Data for tumor model B16 Melanoma (intraperitoneal) in B6D2F1 (BDF1) mice
# test_context: endpoint: median survival time; dose: 25.0 mg/kg/injection; schedule: Q04DX003 (ip); vehicle: saline; higher = longer survival
Inconclusive results and toxic doses are left out.
reported_endpoint: T/C

INSERT INTO results (compound, reported_endpoint, reading) VALUES
  ('CCO/C=C1\SC(=S)N(c2ccco2)C1=O', 'T/C', '116 % of control'),
  ('CCC(=O)NCC1(c2ccccc2)CCN(CC2COc3ccccc3O2)CC1 (centres undefined)', 'T/C', '116 % of control'),
  ('CC1(C)N=C(N)N=C(N)N1c1ccc(OCCOc2ccc(S(=O)(=O)F)cc2)c(Cl)c1', 'T/C', '121 % of control'),
  ('Cc1cc(NC(=O)NCc2ccc(N3C(N)=NC(N)=NC3(C)C)cc2)ccc1S(=O)(=O)F', 'T/C', '97 % of control'),
  ('C[N+]1(C)CCCC1', 'T/C', '95 % of control'),
  ('CC(N)CCc1ccccc1 (centres undefined)', 'T/C', '108 % of control'),
  ('C1=CCOCOC1', 'T/C', '107 % of control'),
  ('Cc1cccnc1C', 'T/C', '103 % of control'),
  ('COc1cc(C(=O)OC(C)CN2CCOCC2)cc(OC)c1OC (centres undefined)', 'T/C', '105 % of control');
